# MEASURED TARGET: human 5HT1A receptor (Homo sapiens)
# Construct: expressed in transfected cells; host or cells: CHO cells, stably transfected
# METHOD: 5-HT1A Receptor Intrinsic Activity Assay (cAMP)
# Assay type: cell-based
# RUN CONDITIONS: reversal of forskolin (1 μM) stimulated cAMP in CHO cells stably transfected with human 5-HT1A receptor; RIA
VALUE KIND: Emax (%)
Could you give me the number in %? Just the number is fine.

Worked cases, answers included:
COMPOUND | VALUE KIND | RESULT NUMBER
COc1ccccc1N1CCN(CC2CCNCC2)CC1 | Emax | 0
COc1ccccc1N1CCN(CC2CCN(CC3CCCCC3)CC2)CC1 | Emax | 89
COc1ccccc1N1CCN(CC2CCCN(Cc3ccccc3)C2)CC1 (stereo not shown) | Emax | 79

Next:
Retrieve Emax measured for COc1ccccc1N1CCN(CC2CCCNC2)CC1 (stereo not shown) and print it.
0

---

Each entry below lists one item and its recorded Ki value.
# MEASURED TARGET: human 5HT1A receptor (Homo sapiens, UniProt P08908)
# Sequence (P08908 1-422): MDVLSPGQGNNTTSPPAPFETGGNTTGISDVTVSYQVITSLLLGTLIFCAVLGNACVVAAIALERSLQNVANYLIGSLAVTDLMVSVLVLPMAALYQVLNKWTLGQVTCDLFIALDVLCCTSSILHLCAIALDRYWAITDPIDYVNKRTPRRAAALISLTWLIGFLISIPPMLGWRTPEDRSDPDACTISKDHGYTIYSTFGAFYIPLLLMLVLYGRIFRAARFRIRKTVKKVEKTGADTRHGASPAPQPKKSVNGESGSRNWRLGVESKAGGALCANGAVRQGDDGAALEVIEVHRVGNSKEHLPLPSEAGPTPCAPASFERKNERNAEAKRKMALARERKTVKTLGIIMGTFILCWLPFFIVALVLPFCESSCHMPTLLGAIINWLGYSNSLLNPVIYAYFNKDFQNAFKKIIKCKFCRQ
# METHOD: 5-HT1A Receptor Binding Assay ([3H] 8-OH-DPAT displacement)
# RUN CONDITIONS: displacement of [3H] 8-OH-DPAT (1.5 nM) in CHO cells stably transfected with human 5HT1A receptor
Could you give me the number in nM? Just the number is fine.

Worked cases, answers included:
COMPOUND | VALUE KIND | RESULT NUMBER
COc1ccccc1N1CCN(CC2CCN(CC3CCCCC3)CC2)CC1 | Ki | 8.4
COc1ccccc1N1CCN(CC2CCCN(Cc3ccccc3)C2)CC1 (stereo not drawn) | Ki | 14

Next:
Retrieve Ki measured for COc1ccccc1N1CCN(CC2CCCNC2)CC1 (stereo not drawn) and print it.
2
